# Measured On: LIPK
# Assay Comment: pooled miR-30 sensor sort-seq; sequence = guide strand; also: reference of the scale not given here
# Measurement Parameters: shRNA
The label depends only on sensor-assay potency score (higher = more potent): Yes if it is at least -0.6, No if it is smaller.

[[record]]
sequence_entry = "TTTGTCACCAAACAACACCTTA"
qualitative_label = "No"

[[record]]
sequence_entry = "TATTGCTGTTGGAACTTCCATC"
qualitative_label = "No"

[[record]]
sequence_entry = "TTCCTTTCTTGTCATAACCATA"
qualitative_label = "No"

[[record]]
sequence_entry = "TTGTAGTGTGGAATCAGCTTGT"
qualitative_label = "Yes"

[[record]]
sequence_entry = "TAGCTTTCGATTGCACACTTTG"
qualitative_label = "No"

[[record]]
sequence_entry = "TTTCTTGTCATAACCATACATA"
qualitative_label = "No"

[[record]]
sequence_entry = "AACACCTTAACTACTCGCCTGG"
qualitative_label = "Yes"


These entries and their values trace back to the OligoGym collection.
